- Method description: Aqueous solubility of the compound in DMSO/phosphate buffered saline at pH7.4 by chemiluminescent nitrogen detection method
- Assay type: physicochemical
- Condition set: pH 7.4
Measured property: solubility kinetic (µM)

                              smiles_record  value_unit  reported_measurement
0  COc1ccccc1C(=O)Nc1cc2c(cc1N1CCCCC1)n(C)c(=O)n2C          µM                    25
